Values were extracted from ChEMBL document CHEMBL5058577.

# Test system: Fibroblast
# Assay Notes: Multiplex assay against human fibroblast
# Format: toxicity, cell-based
# Test Context: 24 h, 10 µM, compound concentration 10 uM, replicate 1
Measurement Name: Population Pyknosed Nuclei (%)
Please reply with the bare figure in % and do not write the unit itself.

Consider the reported Population Pyknosed Nuclei (%) for these compounds:
{"Compound": "Cc1ccc(/C(=C\\CN2CCCC2)c2ccccn2)cc1 [TRIPROLIDINE]", "Population Pyknosed Nuclei (%)": 15}
{"Compound": "CN1CCN(c2nc3cc(C(F)(F)F)ccc3n3cccc23)CC1.O=C(O)/C=C\\C(=O)O.O=C(O)/C=C\\C(=O)O", "Population Pyknosed Nuclei (%)": 10}
{"Compound": "CC(=O)NCCc1c(Cc2ccccc2)[nH]c2ccccc12 [LUZINDOLE]", "Population Pyknosed Nuclei (%)": 17}
{"Compound": "CN1CCN2c3ncccc3Cc3ccccc3C2C1 (centres undefined) [MIRTAZAPINE]", "Population Pyknosed Nuclei (%)": 7}
{"Compound": "CCCN1CCC[C@@H]2Cc3n[nH]cc3C[C@H]21.Cl [QUINPIROLE HYDROCHLORIDE]", "Population Pyknosed Nuclei (%)": 10}
{"Compound": "Cl.Clc1ccc2nsnc2c1NC1=NCCN1 [TIZANIDINE HYDROCHLORIDE]", "Population Pyknosed Nuclei (%)": 20}
{"Compound": "COc1ccc2c(c1)C(C(=O)N(Cc1ccc(N(C)C)cc1)c1ccc(C(C)C)cc1)CCC2.Cl (centres undefined)", "Population Pyknosed Nuclei (%)": 10}
{"Compound": "CN(C)c1ccnc2sc3c(=O)n(N4CCCCCC4)cnc3c12", "Population Pyknosed Nuclei (%)": 28}

Query compound follows.
Tell me the measured Population Pyknosed Nuclei (%) of O=C(NCCO)c1cccc(-c2cc(Nc3ccc(OC(F)(F)F)cc3)ncn2)c1 , please.
24

* * *

# System: Fibroblast
# Assay Notes: Multiplex assay against human fibroblast
# Type: toxicity, cell-based
# Test Context: 24 h, 1 µM, compound concentration 1 uM, replicate 2
Label scheme for Population Healthy Nuclei (%): lower than 50% is not met, 50% and above is met.

{"Molecule": "O=C(O)c1cc2ccccc2c(Cc2c(O)c(C(=O)O)cc3ccccc23)c1O", "Test System": "Fibroblast", "Label": "met"}
{"Molecule": "CCCN1CCC[C@@H]2Cc3n[nH]cc3C[C@H]21.Cl [QUINPIROLE HYDROCHLORIDE]", "Test System": "Fibroblast", "Label": "met"}
{"Molecule": "CCCC(CCC)C(=O)O", "Test System": "Fibroblast", "Label": "met"}
{"Molecule": "COc1c(C)cc(NC(=O)c2nn(Cc3ccc(F)cc3)c3c2CN(C(=O)c2ccc[nH]2)C[C@]3(C)C(N)=O)cc1C", "Test System": "Fibroblast", "Label": "not met"}
{"Molecule": "O=C(NCC(=O)N1CC[C@H](N[C@H]2CC[C@@](O)(c3ccc(-c4ncccn4)cn3)CC2)C1)c1cccc(C(F)(F)F)c1", "Test System": "Fibroblast", "Label": "met"}

Here's the next entry for you.
Could you tell me if the measured Population Healthy Nuclei (%) of COc1cc(C(=O)N(CCCc2ccccc2)Cc2ccc(CC(=O)O)cc2)cc(OC)c1C reaches 50% or more?
not met

* * *

# System: Fibroblast
# Assay Notes: Multiplex assay against human fibroblast
# Format: toxicity, cell-based
# Test Context: 12 h, 1 µM, compound concentration 1 uM, replicate 2
Measurement Name: Population Normal (%)
Respond with a number, then the unit of measure.

{"Compound": "Cc1ccc(F)cc1C(=O)Nc1ccc(C(=O)N2Cc3cccn3Cc3ccccc32)c(Cl)c1 [LIXIVAPTAN]", "Test System": "Fibroblast", "Population Normal (%)": "96%"}

// returns reported Population Normal (%) for input C[C@H]1[C@H]2CC[C@H]3[C@@H]4CC=C5C[C@@H](N(C)C)CC[C@]5(C)[C@H]4CC[C@]23CN1C [CONESSINE]
97%

Look up Population Normal (%) for this compound: Cc1ccc(C(C)(O)c2nc3ccccc3s2)c(C)c1 (centres undefined)
95%

Using the record for O=C(O)Cc1ccccc1Nc1c(Cl)cccc1Cl [DICLOFENAC] , report its Population Normal (%).
97%

Which Population Normal (%) reading was recorded for the compound CC(=O)NCCc1c(Cc2ccccc2)[nH]c2ccccc12 [LUZINDOLE] ?
95%

Consider the compound Cc1ccc(/C(=C\CN2CCCC2)c2ccccn2)cc1 [TRIPROLIDINE] and give its measured Population Normal (%).
95%

// lookup Population Normal (%) for CN(C)c1ccnc2sc3c(=O)n(N4CCCCCC4)cnc3c12
93%

I'd like to know its Population Normal (%). The compound in question is COc1ccc2c(c1)C(C(=O)N(Cc1ccc(N(C)C)cc1)c1ccc(C(C)C)cc1)CCC2.Cl (centres undefined)
94%

Entry under review: Cc1ccccc1C(=O)Nc1ccc(C(=O)N2CCCC(N(C)C)c3ccccc32)cc1.Cl (centres undefined) . Reported Population Normal (%)?
98%

* * *

# System: HEK-293T
# Assay Notes: Multiplex assay against HEK293T
# Assay type: toxicity, cell-based
# Test Context: human, 48 h, 1 µM, compound concentration 1 uM, replicate 1
Measurement Name: Total Cell Count
# print the numeric value only

The cases that follow already have their Total Cell Count on record.
{"Compound": "COc1ccc2c(c1)C(C(=O)N(Cc1ccc(N(C)C)cc1)c1ccc(C(C)C)cc1)CCC2.Cl (stereo not drawn)", "Test System": "HEK-293T", "Total Cell Count": 968}
{"Compound": "CSCC[C@H](NC=O)C(=O)N[C@@H](CC(C)C)C(=O)N[C@@H](Cc1ccccc1)C(=O)O", "Test System": "HEK-293T", "Total Cell Count": 1154}
{"Compound": "C[C@H]1[C@H]2CC[C@H]3[C@@H]4CC=C5C[C@@H](N(C)C)CC[C@]5(C)[C@H]4CC[C@]23CN1C", "Test System": "HEK-293T", "Total Cell Count": 735}

// next item, Total Cell Count requested
Using the record for C[C@@H]1C[C@H]2[C@@H]3CCC4=CC(=O)C=C[C@]4(C)[C@@]3(F)[C@@H](O)C[C@]2(C)[C@@]1(O)C(=O)CO , report its Total Cell Count.
915

* * *

List of Total Cell Count values.
# Test system: HEK-293T
# Assay Notes: Multiplex assay against HEK293T
# Format: toxicity, cell-based
# Test Context: human, 24 h, 10 µM, compound concentration 10 uM, replicate 1
Respond with the number and no other words.

Some compounds with recorded Total Cell Count:
{"Compound": "CC1(COc2ccc3c(c2)ncn3-c2ccc3cccc(N4CCC(N)CC4)c3n2)COC1 [CRENOLANIB]", "Observed Value": 394}
{"Compound": "CSc1ccccc1N1CCN(CCCCCC(=O)NC2CCCc3ccccc32)CC1.Cl (centres undefined)", "Observed Value": 303}
{"Compound": "CC(=O)NCCc1c(Cc2ccccc2)[nH]c2ccccc12 [LUZINDOLE]", "Observed Value": 502}
{"Compound": "Cc1ccccc1C(=O)Nc1ccc(C(=O)N2CCCC(N(C)C)c3ccccc32)cc1.Cl (centres undefined)", "Observed Value": 268}

# query: Total Cell Count | item Cc1ccc(C(C)(O)c2nc3ccccc3s2)c(C)c1 (centres undefined) | system: HEK-293T
487

Report Total Cell Count for C[C@H](NC(=O)c1c(C(F)F)nn(C)c1Oc1cccc(C(F)(F)F)c1)c1ccc(C(=O)O)cc1 [PALUPIPRANT] tested on HEK-293T.
465

* * *

# Test system: U2OS
# Assay Notes: Multiplex assay against U2OS
# Assay type: toxicity, cell-based
# Test Context: human, 24 h, 10 µM, compound concentration 10 uM, replicate 1
Measurement Name: Population Mitochondria Different-Phenotype (%)
Kindly provide the numeric value in % only, without the unit symbol.

Example entries and their recorded answers appear below.
{"Compound": "CC1(COc2ccc3c(c2)ncn3-c2ccc3cccc(N4CCC(N)CC4)c3n2)COC1 [CRENOLANIB]", "Observed Value": 50}
{"Compound": "CCNC1(C(N)=O)CCN(c2ncnc3c2nc(-c2ccccc2Cl)n3-c2ccc(Cl)cc2)CC1 [OTENABANT]", "Observed Value": 75}
{"Compound": "Cc1ccc(C(C)(O)c2nc3ccccc3s2)c(C)c1 (stereo unspecified)", "Observed Value": 3}
{"Compound": "COc1c(C)cc(NC(=O)c2nn(Cc3ccc(F)cc3)c3c2CN(C(=O)c2ccc[nH]2)C[C@]3(C)C(N)=O)cc1C", "Observed Value": 92}
{"Compound": "O=C(NCC(=O)N1CC[C@H](N[C@H]2CC[C@@](O)(c3ccc(-c4ncccn4)cn3)CC2)C1)c1cccc(C(F)(F)F)c1 [PF-4136309]", "Observed Value": 3}
{"Compound": "C[C@H]1[C@H]2CC[C@H]3[C@@H]4CC=C5C[C@@H](N(C)C)CC[C@]5(C)[C@H]4CC[C@]23CN1C [CONESSINE]", "Observed Value": 0}
{"Compound": "CN(C)c1ccnc2sc3c(=O)n(N4CCCCCC4)cnc3c12", "Observed Value": 15}
{"Compound": "CSc1ccccc1N1CCN(CCCCCC(=O)NC2CCCc3ccccc32)CC1.Cl (stereo unspecified)", "Observed Value": 81}

Which value of Population Mitochondria Different-Phenotype (%) has been reported for CCCC(CCC)C(=O)O [VALPROIC ACID] in the records?
3

Population Mitochondria Different-Phenotype (%) lookup needed for CCCN1CCC[C@@H]2Cc3n[nH]cc3C[C@H]21.Cl [QUINPIROLE HYDROCHLORIDE] , thanks.
0

Fill in the blank: the reported Population Mitochondria Different-Phenotype (%) of O=C(O)Cc1ccccc1Nc1c(Cl)cccc1Cl [DICLOFENAC] is ____.
1

I'd like to know its Population Mitochondria Different-Phenotype (%). The compound in question is CCCn1c(=O)c2[nH]c(C3CCCC3)nc2n(CCC)c1=O
0

Reported Population Mitochondria Different-Phenotype (%), compound CN1CCN2c3ncccc3Cc3ccccc3C2C1 (stereo unspecified) [MIRTAZAPINE] : ____
2

Which Population Mitochondria Different-Phenotype (%) is reported for this compound? CCOc1c2c(c(OCC)c3ncccc13)CN(c1ccc(CS(=O)(=O)NC(=O)Cc3ccccc3OC)cc1C)C2=O
2

Reported Population Mitochondria Different-Phenotype (%), compound N[C@@]1(C(=O)O)CO[C@H]2[C@H](C(=O)O)[C@H]21 [LY-379268] : ____
1

Please look up its Population Mitochondria Different-Phenotype (%): c1cc(OCCCN2CCCCC2)ccc1CN1CCCCC1 [JNJ-5207852]
3

Query (compound): COc1ccc2c(c1)C(C(=O)N(Cc1ccc(N(C)C)cc1)c1ccc(C(C)C)cc1)CCC2.Cl (stereo unspecified) ; field requested: Population Mitochondria Different-Phenotype (%)
42

Please look up its Population Mitochondria Different-Phenotype (%): N#Cc1c(N)nc(SCc2csc(-c3ccc(Cl)cc3)n2)c(C#N)c1-c1ccc(OCCO)cc1 [CAPADENOSON]
38

So what does the record say about Population Mitochondria Different-Phenotype (%) for O=C(O)c1cc2ccccc2c(Cc2c(O)c(C(=O)O)cc3ccccc23)c1O [PAMOIC ACID] ?
2

Would you mind telling me what Population Mitochondria Different-Phenotype (%) value was observed for CN(C)CCCc1cc(C(=O)Nc2ccc(-c3ccncc3)cc2)ccc1O.Cl.Cl ?
3

Query (compound): Cc1nc2ccc(Oc3ccc(F)cc3)cc2c(=O)n1C[C@H]1CCCN(C(C)C)C1.Cl ; field requested: Population Mitochondria Different-Phenotype (%)
63

Name the recorded Population Mitochondria Different-Phenotype (%) for CC(=O)NCCc1c(Cc2ccccc2)[nH]c2ccccc12 [LUZINDOLE] .
3

What value of Population Mitochondria Different-Phenotype (%) has been reported for the following compound? COc1cc(NC(=O)CCN2CCC(OC(=O)Nc3ccccc3-c3ccccc3)CC2)c(Cl)cc1CNC[C@H](O)c1ccc(O)c2[nH]c(=O)ccc12 [BATEFENTEROL]
59

What Population Mitochondria Different-Phenotype (%) value was documented for this compound, O=C1COc2nccc(-c3ccccc3F)c2CN1Cc1cc(C(F)(F)F)cc(C(F)(F)F)c1 ?
22

Any idea what its Population Mitochondria Different-Phenotype (%) is? The compound is CNC[C@H](O)c1ccc(O)c(O)c1 [EPINEPHRINE]
5

Query (compound): CN1CCN(c2nc3cc(C(F)(F)F)ccc3n3cccc23)CC1.O=C(O)/C=C\C(=O)O.O=C(O)/C=C\C(=O)O ; field requested: Population Mitochondria Different-Phenotype (%)
41

Which Population Mitochondria Different-Phenotype (%) value belongs to Oc1c(CN2CCN(c3ccccn3)CC2)cc(Cl)c2cccnc12 ?
14
